experiment: Pharmacokinetic experiment on SD rats (iv and ig); assay type: in vivo; details: Sprague-Dawley, rat, plasma, iv, 1.00 mg/kg
readout: AUC

Look over these answered cases.
{"compound": "Cc1nn(C2CCC(=O)NC2=O)c2cccc(OC3CCN(C[C@H]4CC[C@H](n5cc6cc(NC(=O)c7cnn8cccnc78)c(N7CCOCC7)cc6n5)CC4)CC3)c12 (some centres unmarked)", "AUC": "1900 ng·h/mL"}
{"compound": "Cc1nn(C2CCC(=O)NC2=O)c2cccc(N3CC4CN(C[C@H]5CC[C@H](n6cc7cc(NC(=O)c8cnn9cccnc89)c(N8CCOCC8)cc7n6)CC5)CC4C3)c12 (some centres unmarked)", "AUC": "499 ng·h/mL"}
{"compound": "Cc1nn(C2CCC(=O)NC2=O)c2cccc(N3CCC4(CC3)CN(C[C@H]3CC[C@H](n5cc6cc(NC(=O)c7cnn8cccnc78)c(N(C)C)cc6n5)CC3)C4)c12 (some centres unmarked)", "AUC": "625 ng·h/mL"}
{"compound": "Cc1nn(C2CCC(=O)NC2=O)c2cncc(N3CCN(C[C@H]4CC[C@H](n5cc6cc(NC(=O)c7cnn8cccnc78)c(N7CCO[C@H](C)C7)cc6n5)CC4)CC3)c12 (some centres unmarked)", "AUC": "537 ng·h/mL"}

# next compound below
Please fill in: AUC reported for Cc1nn(C2CCC(=O)NC2=O)c2cccc(N3CCN(C[C@H]4CC[C@H](n5cc6cc(NC(=O)c7cnn8cccnc78)c(N7CCOCC7)cc6n5)CC4)CC3)c12 (some centres unmarked) = 2250 ng·h/mL
